- System: HEK-293 cells
- experiment.description: MTT cytotoxicity assay, normal cell line HEK-293
- Type: cell-based
- recorded.conditions: Homo sapiens, HEK293, read-out: IC50 Values, HEK-293 Cell Lines
pIC50: −log10 of the molar value.

molecule	pIC50
Oc1ccccc1C=NCCN=Cc1ccccc1O	4.03

---

- System: Hep-G2 cells
- experiment.description: MTT cytotoxicity assay, Hep-G2
- Format: cell-based, human
- recorded.conditions: Hep-G2 liver carcinoma cells, read-out: IC50 Values, Hep-G2 Cell Line
- Protocol: The cytotoxic activities of the synthesized ligands and metal complexes against the breast cancer cell line MDA-MB231, the hepatic cellular (Hep-G2), and normal cell line (HEK-293) were assessed by MTT assay. A cell suspension was diluted by complete medium to a concentration of 5 × 10^4 cell/mL. […] The MTT assay technique is based on the reduction of the tetrazolium salt MTT to insoluble purple formazan by metabolically active cells, making their activities quantifiable by spectrophotometry. […]
pIC50: −log10 of the molar value.
endpoint.name: pIC50

compound	test.value
N.N.[Cl][Pt][Cl] [Cisplatin, reference compound]	5.81

---

- Test system: Hep-G2 cells
- experiment.description: MTT cytotoxicity assay, Hep-G2
- Format: cell-based, human
- recorded.conditions: Homo sapiens, HepG2, Hep-G2 liver carcinoma cells, read-out: IC50 Values, Hep-G2 Cell Line
- Procedure: The cytotoxic activities of the synthesized ligands and metal complexes against the breast cancer cell line MDA-MB231, the hepatic cellular (Hep-G2), and normal cell line (HEK-293) were assessed by MTT assay. A cell suspension was diluted by complete medium to a concentration of 5 × 10^4 cell/mL. […] The MTT assay technique is based on the reduction of the tetrazolium salt MTT to insoluble purple formazan by metabolically active cells, making their activities quantifiable by spectrophotometry. […]

molecule	system.tested	endpoint.unit	IC50
Oc1ccccc1C=NCCN=Cc1ccccc1O [S]	Hep-G2 cells	nM	1100
